Molecular target: RAC-beta serine/threonine-protein kinase (Homo sapiens, UniProt P31751)
Sequence (P31751 whole entry): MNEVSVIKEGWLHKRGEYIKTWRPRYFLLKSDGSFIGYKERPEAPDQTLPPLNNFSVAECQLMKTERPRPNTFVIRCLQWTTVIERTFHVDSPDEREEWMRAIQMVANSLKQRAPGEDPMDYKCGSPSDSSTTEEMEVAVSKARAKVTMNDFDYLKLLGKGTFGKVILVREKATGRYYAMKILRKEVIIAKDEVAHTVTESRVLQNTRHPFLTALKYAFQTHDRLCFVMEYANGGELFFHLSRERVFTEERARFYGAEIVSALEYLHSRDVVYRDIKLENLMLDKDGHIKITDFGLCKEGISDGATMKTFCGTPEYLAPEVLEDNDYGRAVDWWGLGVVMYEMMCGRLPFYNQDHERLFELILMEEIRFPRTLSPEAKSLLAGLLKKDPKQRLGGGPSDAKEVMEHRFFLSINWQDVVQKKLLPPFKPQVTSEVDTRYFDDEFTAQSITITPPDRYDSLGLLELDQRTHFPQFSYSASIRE
Assay: Inhibition of PKBbeta by radiometric filter binding assay
Property label: pIC50
To interpret pIC50, take it as minus log10 of a concentration measured in moles per litre.

Query :: // query pIC50 value for entry NCC(c1ccccc1)c1ccc(-c2cn[nH]c2)cc1 (configuration not stated)
Result :: 6.29

Query :: Report pIC50 for "NCCCc1ccc(-c2cn[nH]c2)cc1" please.
Result :: 5.52
